- Tested on: Mus musculus
- test.summary: Biodistribution in mouse B16F0 cells bearing C57B16 mouse tumor at 1.26 to 5.29 MBq, iv after 1 hr
- Assay type: ADME, organism-based, Neoplasm
- run.parameters: in vivo
Binarize Drug uptake at 10 % ID/g; below is True, at or above is False.

{"columns": ["entry.smiles", "assayed.system", "class"],
 "data": [
  ["CCN(CCNC(=O)c1cnc2cc([125I])ccc2n1)CCc1ccnc(F)c1.Cl.Cl", "Mus musculus", "False"],
  ["CCN(CCNC(=O)c1cccc2nc3cc([125I])ccc3nc12)CCOc1cccnc1F.Cl.Cl", "Mus musculus", "False"],
  ["CCN(CCNC(=O)c1cnc2cc([125I])ccc2n1)CCOc1cccnc1F.Cl.Cl", "Mus musculus", "False"],
  ["CCN(CC)Cc1ccnc(F)c1CNC(=O)c1cnc2cc([125I])ccc2n1.Cl.Cl", "Mus musculus", "True"],
  ["CCN(CCNC(=O)c1ccc2cc([125I])ccc2n1)CCOc1cccnc1F.Cl.Cl", "Mus musculus", "False"],
  ["CCN(CCNC(=O)c1ccnc(F)c1)CCNC(=O)c1cnc2cc([125I])ccc2n1.Cl.Cl", "Mus musculus", "True"],
  ["CCN(CCNC(=O)c1cccc2c(=O)c3cc([125I])ccc3[nH]c12)CCOc1cccnc1F.Cl", "Mus musculus", "False"],
  ["CCN(CCNC(=O)c1ccc2cc([125I])ccc2c1)CCOc1cccnc1F.Cl", "Mus musculus", "True"],
  ["CCN(CCCc1ccnc(F)c1)CCNC(=O)c1cnc2cc([125I])ccc2n1.Cl.Cl", "Mus musculus", "True"],
  ["CCN(CC)CCNC(=O)c1cnc2cc([125I])ccc2n1.Cl.Cl", "Mus musculus", "False"]
]}

* * *

Parameter Drug uptake: see the listing below.
- Test system: Mus musculus
- test.summary: Biodistribution in mouse B16F0 cells bearing C57B16 mouse tumor at 1.26 to 5.29 MBq, iv after 6 hrs
- Format: ADME, organism-based, Neoplasm
- run.parameters: in vivo
attribute.measured: Drug uptake (% ID/g)

{"columns": ["entry.smiles", "assayed.system", "value.measured"],
 "data": [
  ["CCN(CCCc1ccnc(F)c1)CCNC(=O)c1cnc2cc([125I])ccc2n1.Cl.Cl", "Mus musculus", 14.1],
  ["CCN(CCNC(=O)c1ccnc(F)c1)CCNC(=O)c1cnc2cc([125I])ccc2n1.Cl.Cl", "Mus musculus", 12.1],
  ["CCN(CCNC(=O)c1cnc2cc([125I])ccc2n1)CCNc1cccc(F)n1.Cl.Cl", "Mus musculus", 12.5],
  ["CCN(CCNC(=O)c1ccc2cc([125I])ccc2n1)CCOc1cccnc1F.Cl.Cl", "Mus musculus", 9.7],
  ["CCN(CCNC(=O)c1cccc2c(=O)c3cc([125I])ccc3[nH]c12)CCOc1cccnc1F.Cl", "Mus musculus", 13],
  ["CCN(CCNC(=O)c1cnc2cc([125I])ccc2n1)CCc1ccnc(F)c1.Cl.Cl", "Mus musculus", 14.5],
  ["CCN(CC)Cc1ccnc(F)c1CNC(=O)c1cnc2cc([125I])ccc2n1.Cl.Cl", "Mus musculus", 6.7],
  ["CCN(CCNC(=O)c1cn2cc([125I])ccc2n1)CCOc1cccnc1F.Cl.Cl", "Mus musculus", 13.4],
  ["CCN(CCNC(=O)c1cccc2nc3cc([125I])ccc3nc12)CCOc1cccnc1F.Cl.Cl", "Mus musculus", 13.8],
  ["CCN(CC)CCNC(=O)c1cnc2cc([125I])ccc2n1.Cl.Cl", "Mus musculus", 29.6],
  ["CCN(CCNC(=O)c1cnc2cc([125I])ccc2n1)c1cccc(F)n1", "Mus musculus", 1.8],
  ["CCN(CCNC(=O)c1cnc2cc([125I])ccc2n1)CCOc1cccnc1F.Cl.Cl", "Mus musculus", 18.8]
]}
